# Tested on: last instar larvae of common house mosquitos (Culexpipienspallens)
# Protocol: Larval mortality test on common house mosquitos in treated water (Test Example 5)
# Type: in vivo
# Applied Conditions: Culicidae, 192 h; active ingredient 3.5 ppm in ion-exchanged water; 20 last instar larvae; observed after 8 days
Measurement Type: mortality at 3.5 ppm

compound="O=C(/C=C/CCCCCCc1ccccc1)NCC1CCOC1 (stereo not shown)" measured_value="≥ 95%"
compound="O=C(/C=C/CCCCCCCc1ccccc1)NCC1CCOC1 (stereo not shown)" measured_value="≥ 95%"
compound=O=C(/C=C/CCCCCCc1ccccc1)NCC1CCOCC1 measured_value="≥ 95%"
compound=C/C(=C\C(=O)NCC1CCOCC1)CCCc1ccccc1 measured_value="≥ 95%"
